Hello, the source for this data is paper PMC5046105, in case you need it.

Molecular target: pWT PDZ2 K392M (Homo sapiens, UniProt Q12959, C378A/I342W/K392M)
Construct: constituting SAP97 residues 311–407 and the mutations I342W and C372A; His-tagged lipoyl protein domain (N, cleaved yes); made in house
Sequence (Q12959 311-407 I342W/C378A/K392M): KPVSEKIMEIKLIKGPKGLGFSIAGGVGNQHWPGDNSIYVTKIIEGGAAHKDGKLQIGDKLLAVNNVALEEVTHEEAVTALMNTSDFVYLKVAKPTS
Assay: Stopped-flow binding kinetics, peptide with pWT PDZ2 K392M
Settings: Kd = koff/kon, pH 7.5, 10 °C, ± propagated standard error
pKd: −log10 of the molar value. Ends that are not written are not given here.
Give class 1 when the value for pKd is at least 6. Give class 0 when it is less.

Inquiry: Item Ac-TSRETDL [TSRETDL] with pKd of 6 or above?
Reply text: class 0

Inquiry: Item Ac-EKKHTLL [EKKHTLL] with pKd of 6 or above?
Reply text: class 0

Inquiry: Exam item: decide whether the reported pKd for Ac-VSKETPL [VSKETPL] is at least 6.
Reply text: class 0

Inquiry: Assess whether reported pKd for Ac-YRRESAI [YRRESAI] sits at 6 or higher.
Reply text: class 0

Inquiry: Please tell me: is the substance Ac-KRKETLV [KRKETLV] at or over 6 in terms of pKd?
Reply text: class 1

Inquiry: I'd appreciate it if you could say whether Ac-SARSTDV [SARSTDV] has pKd at least equal to 6.
Reply text: class 0

Inquiry: Test whether the substance Ac-PGKETQL [PGKETQL] records pKd of 6 or higher.
Reply text: class 0

Inquiry: Form field: pKd at least 6? Entry: Ac-RSISTDV [RSISTDV]
Reply text: class 0

Inquiry: Identify whether the reported pKd of the following substance is 6 or greater: Ac-RRRETQV [RRRETQV, reference compound]
Reply text: class 1
